Test: Acute gastral ulcerogenity
Set-up: species or system male Sprague-Dawley rats
Conditions: rat, in vivo, po
Each entry below carries its reported TD50 at 24 h.

Answered examples (4):
[[record]]
smiles_text = "Cc1nn2c(-c3cc(C(C)(C)C)c(O)c(C(C)(C)C)c3)csc2nc1=O"
endpoint_value = "> 200 mg/kg"

[[record]]
smiles_text = "CCCc1nn2c(-c3cc(C(C)(C)C)c(O)c(C(C)(C)C)c3)csc2nc1=O"
endpoint_value = "> 200 mg/kg"

[[record]]
smiles_text = "CC(C)(C)c1cc(-c2csc3nc(=O)cnn23)cc(C(C)(C)C)c1O"
endpoint_value = "> 400 mg/kg"

[[record]]
smiles_text = "CC(C)(C)c1cc(-c2csc3nc(=O)c(CO)nn23)cc(C(C)(C)C)c1O"
endpoint_value = "> 200 mg/kg"


Consider the molecule shown here: "Cc1cc(-c2csc3nc(=O)cnn23)cc(C(C)(C)C)c1O" What is its recorded TD50 at 24 h?
> 400 mg/kg
